Please provide measured GI50 for the entries that follow.
# Test system: SK-MEL-5
# testSummary: NCI tumour cell line growth inhibition, 48 h
Active and inactive are the calls of the source. Cut-off read from the data, not from the text of the source: active = GI50 up to about 1.1 µM and inactive = higher.

Fill: GI50 (SK-MEL-5) for this molecule `COc1cccc(Nc2nc(N)nc(N)c2N=O)c1`
18.7 µM (inactive)

Report GI50 from SK-MEL-5 testing of COc1cc(CC2C(=O)OCC2Cc2ccc(OC)c(OC)c2)ccc1O (stereo not given)
4.42 µM (inactive)

// fetch GI50; item: `COc1ccc(/N=C(\C)c2ccncc2)cc1` ; system: SK-MEL-5
94.8 µM (inactive)

Please report GI50 with SK-MEL-5 for item `O=c1[nH]c(Br)nc2[nH]nnc12` .
68.9 µM (inactive)

Give the observed GI50 of `CC(=O)NC1=C(N)C(=O)c2ccccc2C1=O` for SK-MEL-5.
30.6 µM (inactive)

Report value: GI50, system: SK-MEL-5, molecule: `CN(C)CCNC(=O)c1ccc(Cl)c2c(Nc3ccc(S(N)(=O)=O)cc3)c3ccccc3nc12`
2.49 µM (inactive)

Write GI50 of COC1C(OC(=O)c2ccc(C)[nH]2)C(O)C(Oc2ccc3c(O)c(NC(=O)c4c[nH]c(C(=O)Nc5c(O)c6ccc(OC7OC(C)(C)C(OC)C(OC(=O)c8ccc(C)[nH]8)C7O)c(C)c6oc5=O)c4C)c(=O)oc3c2C)OC1(C)C (stereo not given) ; system used: SK-MEL-5
2.61 µM (inactive)

GET GI50 where system = SK-MEL-5 and item = `N#CCc1c(F)c(F)c(F)c(F)c1F`
54.6 µM (inactive)

Please look at `N#CCOc1ccc(/C=C/C(=O)c2ccc(Cl)cc2)cc1` and tell me its recorded GI50 on SK-MEL-5.
20.9 µM (inactive)

Report measured GI50 on SK-MEL-5; entry: OCC(O)COCn1cc(Cn2ncc3c(NCc4ccccc4)ncnc32)nn1 (stereo not given)
> 100 µM (inactive)

Quote SK-MEL-5 GI50 for entry `O/N=C(/CC(O)(C(F)(F)F)C(F)(F)F)c1ccccc1` .
2.1 µM (inactive)

Would you please give the reported GI50 of `O=C(Nc1cc(Cl)ccc1Cl)c1cc2cccc(Cl)c2oc1=O` with SK-MEL-5?
> 100 µM (inactive)

State measured GI50 of the molecule `CCOC(=O)c1c(C)n(-c2ccc(C)cc2)c(=O)c2ccccc2c(=O)c2c(=O)ccc(=O)c1=2` with SK-MEL-5.
14.7 µM (inactive)

Report its GI50 with SK-MEL-5 as the test system: `O=C1C(=CNc2ccccc2Cl)C(=O)N(c2ccccc2)C(=O)N1c1ccccc1`
> 100 µM (inactive)

Under SK-MEL-5: report GI50 of N=C1OC(c2ccc3c(c2)OCO3)C(NNS(=O)(=O)c2ccccc2)=C1O (stereo not given) .
38.1 µM (inactive)

Report the value of GI50 obtained on SK-MEL-5 for C[C@H](CC[C@@H](O)C(C)(C)O)[C@H]1CC[C@@]2(C)[C@@H]3CC=C4[C@@H](CC[C@H](OC5OC(CO)C(O)C(O)C5O)C4(C)C)[C@]3(C)C(=O)C[C@]12C (stereo not given in full) .
39.5 µM (inactive)

# return GI50 for `COc1c(O)ccc(/C=N/NC(=S)NCOCCOC(C)=O)c1OC` , test system: SK-MEL-5
> 100 µM (inactive)

Provide SK-MEL-5 GI50 reading for CC(=O)NCCC1CN(C(=O)/C=C/I)c2ccccc21 (stereo not given) .
7.57 µM (inactive)

Param request: GI50 | system SK-MEL-5 | item CCOC(=O)c1cc(C2CCN(Cc3ccccc3)C2=S)c(C(=O)C=[N+]=[N-])[nH]1 (stereo not given)
19.3 µM (inactive)

State, for SK-MEL-5, measured GI50 of the molecule listed here: `CCNC(=S)N/N=C(/C)c1cccc(/C(C)=N\NC(=S)NCC)n1`
0.774 µM (active)
